study target: UniProt P08173
protocol description: cAMP assay for M4 positive allosteric modulators (M4 PAM cAMP assay)
Format: cell-based
Parameters: expressed in transfected cells; host or cells: CHO-K1
measurement setup: Table 2; CHO-K1 cells expressing human M4; forskolin 7.5 μM + acetylcholine EC20 (0.2 nM)
Entries and their measured pEC50 follow.
Answer as the number alone; pEC50 is minus log10 of concentration in mol/L.

[[record]]
compound = "Cc1nc2c(c(C)c1Cl)CN(C(=O)CC1CN(c3cccnc3)C1)C2 [Example P1, reference compound]"
result_number = 7.26


Kindly note: UniProt P08173, Cc1nc2c(c(C)c1Cl)CN(C(=O)CC1CN(c3ccncn3)C1)C2 [Example P2, reference compound] , pEC50 value reported: 7.28

###

Entries and their measured Clearance follow.
System: liver cells
protocol description: Determination of the in vitro clearance in liver cells
Type: in vitro ADME
measurement setup: in vitro intrinsic clearance, liver cells (hepatocyte cultures), 37° C.
Lab book: enter the figure in μl/min/1 * 10^6 cells, no units written.

The examples below pair each entry with its known result.
[[record]]
compound = "COCc1nc2c(c(C)c1Cl)CN(C(=O)[C@@H]1CCN(c3ccncn3)C1)C2"
result_number = 2.1

[[record]]
compound = "COCc1nc2c(c(C)c1Cl)CN(C(=O)CC1CN(c3ccncn3)C1)C2 [Example P55, reference compound]"
result_number = 5.1

[[record]]
compound = "Cc1nc2c(c(C)c1Cl)CN(C(=O)[C@@H]1CCN(c3ccncn3)C1)C2"
result_number = 3.5

[[record]]
compound = "Cc1nc2c(c(C)c1Cl)CN(C(=O)[C@@H]1CCN(c3cccnc3)C1)C2"
result_number = 9.3

[[record]]
compound = "Cc1nc2c(c(C)c1Cl)CN(C(=O)CC1CN(c3ccncn3)C1)C2 [Example P2, reference compound]"
result_number = 7.9


Kindly note: liver cells, Cc1nc2c(c(C)c1Cl)CN(C(=O)CC1CN(c3cccnc3)C1)C2 [Example P1, reference compound] , Clearance value reported: 20

###

study target: human M4 receptor (Homo sapiens)
Sequence (P08173 whole entry): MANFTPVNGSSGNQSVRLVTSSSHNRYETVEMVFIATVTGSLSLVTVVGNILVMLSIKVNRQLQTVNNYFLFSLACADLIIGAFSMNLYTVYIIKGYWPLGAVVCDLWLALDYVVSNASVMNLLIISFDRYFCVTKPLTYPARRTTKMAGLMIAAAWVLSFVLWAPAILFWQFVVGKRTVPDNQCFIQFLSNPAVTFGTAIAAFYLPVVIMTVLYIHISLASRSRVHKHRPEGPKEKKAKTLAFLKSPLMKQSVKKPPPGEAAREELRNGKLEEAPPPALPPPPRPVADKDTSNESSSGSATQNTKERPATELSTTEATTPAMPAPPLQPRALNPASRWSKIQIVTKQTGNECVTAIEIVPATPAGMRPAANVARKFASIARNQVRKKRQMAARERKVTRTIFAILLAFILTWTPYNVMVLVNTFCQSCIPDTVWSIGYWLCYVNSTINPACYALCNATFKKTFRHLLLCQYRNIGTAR
protocol description: Calcium flux assay using fluorescent imaging (M4 PAM FLIPR assay)
Type: cell-based
Design: expressed in transfected cells; host or cells: CHO (monoclonal line, clone 2)
measurement setup: Table 1; CHO cells expressing human M4+Gqi5; acetylcholine EC20
Description: CHO cells were transfected with expression plasmid encoding the human M4 receptor and a Gqi5 construct to redirect Gi signaling to calcium. […] Calcium flux in the dye-loaded cells was measured with the fluorescence reader Hamamatsu FDSS 7000. To test compounds as agonists, compound addition (25 μl) was made 10 s into the fluorescent measurements and fluorescent response was recorded for 3 minutes. […]
Entries and their measured pEC50 follow.
Answer as the number alone; pEC50 is minus log10 of concentration in mol/L.

[[record]]
compound_smiles = "Cc1cnc(N2CC[C@@H](C(=O)N3Cc4nc(C)c(Cl)c(C)c4C3)C2)cn1"
property_label = "pEC50"
result_number = 6.21

[[record]]
compound_smiles = "COc1ccc(N2CC[C@@H](C(=O)N3Cc4nc(C)c(Cl)c(C)c4C3)C2)cn1"
property_label = "pEC50"
result_number = 5.99

[[record]]
compound_smiles = "Cc1nc2c(c(C)c1Cl)CN(C(=O)[C@@H]1CCN(c3cc(C(F)(F)F)ncn3)C1)C2"
property_label = "pEC50"
result_number = 6.48


Kindly note: human M4 receptor (Homo sapiens), Cc1nc2c(c(C)c1Cl)CN(C(=O)[C@@H]1CCN(c3ccncn3)C1)C2 , pEC50 value reported: 7.21

Kindly note: human M4 receptor (Homo sapiens), Cc1ccnc(N2CC[C@@H](C(=O)N3Cc4nc(C)c(Cl)c(C)c4C3)C2)n1 , pEC50 value reported: 5.78

Kindly note: human M4 receptor (Homo sapiens), COCc1nc2c(c(C)c1Cl)CN(C(=O)[C@@H]1CCN(c3cncnc3)C1)C2 , pEC50 value reported: 7.13

Kindly note: human M4 receptor (Homo sapiens), Cc1nc2c(c(C)c1Cl)CN(C(=O)[C@@H]1CCN(c3cnc(C(F)(F)F)cn3)C1)C2 , pEC50 value reported: 6.04

Kindly note: human M4 receptor (Homo sapiens), COc1cc(N2CC[C@@H](C(=O)N3Cc4nc(C)c(Cl)c(C)c4C3)C2)ccn1 , pEC50 value reported: 6.17

Kindly note: human M4 receptor (Homo sapiens), Cc1nc2c(c(C)c1Cl)CN(C(=O)[C@@H]1CCN(c3ccnc(C(F)(F)F)c3)C1)C2 , pEC50 value reported: 6.26

Kindly note: human M4 receptor (Homo sapiens), COc1nccc(N2CC[C@@H](C(=O)N3Cc4nc(C)c(Cl)c(C)c4C3)C2)n1 , pEC50 value reported: 5.79

Kindly note: human M4 receptor (Homo sapiens), Cc1nc2c(c(C)c1Cl)CN(C(=O)[C@@H]1CCN(c3cncc(C4CC4)c3)C1)C2 , pEC50 value reported: 6.09

Kindly note: human M4 receptor (Homo sapiens), Cc1nc2c(c(C)c1Cl)CN(C(=O)[C@@H]1CCN(c3ccncc3)C1)C2 , pEC50 value reported: 6.31

Kindly note: human M4 receptor (Homo sapiens), Cc1nc2c(c(C)c1Cl)CN(C(=O)[C@@H]1CCN(c3ccc(C(F)(F)F)nc3)C1)C2 , pEC50 value reported: 5.87

Kindly note: human M4 receptor (Homo sapiens), COc1cc(N2CC[C@@H](C(=O)N3Cc4nc(C)c(Cl)c(C)c4C3)C2)ncn1 , pEC50 value reported: 6.23
